study.target: HDAC1 (Homo sapiens, UniProt Q13547)
Construct: purchased BPS Bioscience
Sequence (Q13547 whole entry): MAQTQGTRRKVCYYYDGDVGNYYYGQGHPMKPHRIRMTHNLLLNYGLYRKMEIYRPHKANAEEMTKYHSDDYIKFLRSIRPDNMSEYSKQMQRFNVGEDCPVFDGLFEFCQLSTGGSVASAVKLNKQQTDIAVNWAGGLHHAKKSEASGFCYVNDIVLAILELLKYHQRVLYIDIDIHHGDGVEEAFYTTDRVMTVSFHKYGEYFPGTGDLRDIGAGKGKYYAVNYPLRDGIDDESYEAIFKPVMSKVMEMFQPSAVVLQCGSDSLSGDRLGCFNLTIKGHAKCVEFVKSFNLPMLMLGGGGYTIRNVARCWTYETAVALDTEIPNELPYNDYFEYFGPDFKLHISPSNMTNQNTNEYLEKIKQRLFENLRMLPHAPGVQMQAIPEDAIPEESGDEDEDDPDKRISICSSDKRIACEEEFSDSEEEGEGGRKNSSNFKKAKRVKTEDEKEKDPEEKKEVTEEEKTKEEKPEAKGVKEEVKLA
test.protocol: HDAC1 fluorescent-based enzymatic activity assay
Format: biochemical
details: Table 3 isoform panel; read-out: Enzyme inhibition HDAC1 (Class I)
metric.name: pIC50
A value of pIC50 is the negative decimal logarithm of a concentration given in moles per litre.

State, in one line, measured pIC50 of CC(C)(C)c1nc(-c2cccc(NS(=O)(=O)c3c(F)cccc3F)c2F)c(-c2ccnc(NCCCCCCC(=O)NO)n2)s1 [14b]
6.31

====

study.target: HDAC1 (Homo sapiens)
Construct: purchased BPS Bioscience
test.protocol: HDAC1 fluorescent-based enzymatic activity assay
Type: biochemical
details: Table 1; read-out: Enzymatic IC50 HDAC1
Item-by-item account of IC50
# unit: nM | format: bare number

Using known records, supply IC50 for CC(C)(C)c1nc(-c2cccc(NS(=O)(=O)c3c(F)cccc3F)c2F)c(-c2ccnc(NCCCCCCCC(=O)NO)n2)s1 [14c]
312

Look up IC50 of CC(C)(C)c1nc(-c2cccc(NS(=O)(=O)c3c(F)cccc3F)c2F)c(-c2ccnc(NCCCCCCCCC(=O)NO)n2)s1 [14d] and report it.
765

// Input: CCc1nc(-c2cccc(NS(=O)(=O)c3c(F)cccc3F)c2F)c(-c2ccnc(NCCCCCCC(=O)NO)n2)s1 [14f] . Output its IC50 only.
61.3

Consider the molecule O=C(CCCCCCNc1nccc(-c2sc(-c3ccccc3)nc2-c2cccc(NS(=O)(=O)c3c(F)cccc3F)c2F)n1)NO [14j] and give its recorded IC50.
15.6

====

study.target: HDAC6 (Homo sapiens, UniProt Q9UBN7)
Construct: purchased BPS Bioscience
Sequence (Q9UBN7 1-1215): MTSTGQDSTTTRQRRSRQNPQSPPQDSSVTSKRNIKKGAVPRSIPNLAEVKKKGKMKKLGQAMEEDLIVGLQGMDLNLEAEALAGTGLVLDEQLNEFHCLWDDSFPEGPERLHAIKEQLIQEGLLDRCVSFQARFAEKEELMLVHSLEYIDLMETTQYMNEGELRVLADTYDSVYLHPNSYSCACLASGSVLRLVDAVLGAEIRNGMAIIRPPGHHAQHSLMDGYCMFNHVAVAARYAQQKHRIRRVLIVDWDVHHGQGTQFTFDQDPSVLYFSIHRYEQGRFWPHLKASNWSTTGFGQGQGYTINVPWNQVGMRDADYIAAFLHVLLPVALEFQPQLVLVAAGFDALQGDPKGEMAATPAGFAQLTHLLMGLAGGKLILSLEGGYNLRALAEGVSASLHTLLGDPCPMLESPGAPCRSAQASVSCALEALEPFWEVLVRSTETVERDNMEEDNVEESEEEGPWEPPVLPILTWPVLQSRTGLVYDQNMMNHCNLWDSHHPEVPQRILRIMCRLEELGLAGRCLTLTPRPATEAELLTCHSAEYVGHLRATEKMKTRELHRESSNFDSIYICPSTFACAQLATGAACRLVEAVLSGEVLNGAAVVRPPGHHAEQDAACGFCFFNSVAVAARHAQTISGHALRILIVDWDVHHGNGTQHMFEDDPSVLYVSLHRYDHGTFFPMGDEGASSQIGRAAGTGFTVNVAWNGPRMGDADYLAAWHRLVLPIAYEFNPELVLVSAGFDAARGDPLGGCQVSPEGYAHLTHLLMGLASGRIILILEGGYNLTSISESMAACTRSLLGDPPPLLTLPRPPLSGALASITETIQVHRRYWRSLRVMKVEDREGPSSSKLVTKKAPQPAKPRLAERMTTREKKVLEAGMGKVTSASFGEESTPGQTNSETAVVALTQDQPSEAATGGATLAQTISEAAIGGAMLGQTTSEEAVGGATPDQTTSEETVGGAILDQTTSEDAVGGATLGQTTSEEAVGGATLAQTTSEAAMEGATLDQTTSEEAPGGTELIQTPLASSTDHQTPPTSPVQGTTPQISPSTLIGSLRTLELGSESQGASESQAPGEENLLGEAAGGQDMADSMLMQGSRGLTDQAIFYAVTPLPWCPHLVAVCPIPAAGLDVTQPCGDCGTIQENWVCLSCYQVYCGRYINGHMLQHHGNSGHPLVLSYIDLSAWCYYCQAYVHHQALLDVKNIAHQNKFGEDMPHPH
test.protocol: HDAC6 fluorescent-based enzymatic activity assay
Assay type: biochemical
details: Table 3 isoform panel; read-out: Enzyme inhibition HDAC6 (Class IIB)
metric.name: IC50 (nM)
Numeric only. Scale: nM

Return IC50 (reported value) for this compound: CC(C)(C)c1nc(-c2cccc(NS(=O)(=O)c3c(F)cccc3F)c2F)c(-c2ccnc(NCCCCCCC(=O)NO)n2)s1 [14b]
49
